Reference source: PubChem BioAssay (NCI)

test system: HOP-62 NSCLC; assay: NCI tumour cell line growth inhibition, 48 h
quantity-name: TGI

Illustrative cases are given below, each with its answer.
molecule	result
Cc1ccc(S(=O)(=O)N2CCc3cc(O)c([N+](=O)[O-])cc32)cc1	> 100 µM
CCC1(Cl)C(=O)NC(=O)N(C2CC(O)C(CO)O2)C1N=[N+]=[N-] (centres undefined)	> 100 µM
Cc1ccc(-c2cc(C(Cl)Cl)on2)cc1	> 100 µM

State the recorded TGI for every item in the following list.
1. COC12C=C/C(=C(/C(=O)OCc3csc(SC)n3)C(=O)CCCCCCCCC3(OC)C=C/C(=C(/C(=O)OCc4cnc(SC)s4)C(=O)CCCCCCCC1)O3)O2 (centres undefined)
2. O=C(/C(=N/Nc1cn[nH]c(=O)c1Cl)c1ccccc1)c1ccccc1
3. COc1ccc2c(c1)c(-c1cc(-c3cn(C)c4ccc(OC)cc34)[nH]n1)cn2C
4. O=c1ncccn1C1OC(CO)C(O)C1F (centres undefined)

["70.6 µM", "> 100 µM", "> 100 µM", "> 100 µM"]

List the reported TGI of each molecule below.
1. CCOc1ccccc1NC(=O)CCC(=O)NN
2. C[N+]1(CCCCN2c3ccccc3Sc3cc(N=[N+]=[N-])ccc32)CCN(C(=O)CCNC(=O)Cc2ccc(C(=O)c3ccccc3)cc2)CC1

["> 100 µM", "44.9 µM"]

* * *

system: DU-145 prostate; experiment: NCI tumour cell line growth inhibition, 48 h
quantity-name: TGI

Provide reported TGI for each item, in the same order as listed.
1. Fc1ccc(OCc2ccc3nc(-c4ccccc4)c(Cl)nc3c2)cc1
2. Nn1nnc2ccccc21
3. O=C(O)CCSc1ncnc2nc[nH]c12

["> 100 µM", "> 100 µM", "> 100 µM"]

* * *

Please respond with reported TGI for every item in the list.
tested on: TK-10 renal; experiment: NCI tumour cell line growth inhibition, 48 h
Numbers only, in µM.

compound	TGI, µM
Cc1ccc(S(=O)c2ccc([N+](=O)[O-])c3nonc23)cc1 (stereo not drawn)	5.51

Consider now this further compound.
Indicate the recorded TGI value for this compound: CC(C)(C)C#CI1OC(=O)c2ccccc21 15.8

* * *

tested on: NCI-H522 lung; assay: NCI tumour cell line growth inhibition, 48 h
quantity-name: TGI

For every item below, please supply its TGI.
1. CCOP(=O)(CC1OC(CO)C(O)C1O)OCC (stereo not drawn)
2. O=C(Nc1nc2ccc(F)cc2s1)c1cccnc1Nc1ccc(Cl)cc1Cl
3. CCC(C)C(NC(=O)C(CCCC[N+](=N)N)NC(=O)C(CCCC[N+](=N)N)NC(=O)c1ccc(OC)cc1)C(=O)NC(CCCC[N+](=N)N)C(=O)N1CCCC1C(=O)NC(CCCCN)C(=O)NC(CC(C)C)C(N)=O (stereo not drawn)

> 100 µM
> 25.6 µM
> 100 µM

* * *

tested on: SK-MEL-28 melanoma; test: NCI tumour cell line growth inhibition, 48 h
Kindly supply the reported TGI values for the records listed here.

Each molecule below has a recorded value; state its TGI.
1. O=C(O)Cn1c[n+](NC(=O)Cc2ccccc2)cn1
2. CC1CCc2sc3[nH]c(=S)n(C)c(=O)c3c2C1 (stereo not given)
3. O=C(/C=C/CC(O)(c1ccccc1)c1ccccc1)Nc1ccccc1Cl
4. Cc1ccc(N2C(=O)/C(=C3\Sc4c(nc(C)n(C)c4=O)N3c3ccccc3)SC2=S)cc1
5. CN(C)CN1C(=O)/C(=N\n2c(-c3ccncc3)n[nH]c2=S)c2ccccc21
6. Cc1ccc(-c2cc(C(Cl)Cl)on2)cc1
7. Fc1ccc(OCc2ccc3nc(-c4ccccc4)c(Cl)nc3c2)cc1

1: > 10 µM; 2: > 100 µM; 3: > 100 µM; 4: > 100 µM; 5: > 100 µM; 6: > 100 µM; 7: > 100 µM

* * *

system: DMS 114 small cell lung; assay: NCI tumour cell line growth inhibition, 48 h
Provide the reported TGI of each item.

Solved entries (count: 2):
compound	target-desc	TGI
COc1cc2c3c(c1OC)/C(=N/OS(=O)(=O)c1ccc(C)cc1)CC3N(S(=O)(=O)c1ccc(C)cc1)CC2 (stereo not drawn)	DMS 114 small cell lung	> 100 µM
c1cc2ccc1C1NCCCN1CCN1CCCNC1c1ccc(cc1)C1NCCCN1CCN1CCCNC21 (stereo not drawn)	DMS 114 small cell lung	> 100 µM

Please look at the following compound next.
Consider the compound BrC(Br)([P+](c1ccccc1)(c1ccccc1)c1ccccc1)[P+](c1ccccc1)(c1ccccc1)c1ccccc1 and give its recorded TGI. 30.3 µM

* * *

For each entry below, report its TGI value.
tested on: SK-OV-3 ovarian; test: NCI tumour cell line growth inhibition, 48 h

Respectfully, I request TGI for each entry included below.
1. BrC(Br)([P+](c1ccccc1)(c1ccccc1)c1ccccc1)[P+](c1ccccc1)(c1ccccc1)c1ccccc1
2. CC1CCc2sc3[nH]c(=S)n(C)c(=O)c3c2C1 (stereo unspecified)
3. COc1ccc2c(c1)CCC(CN1CCN(CCOC(c3ccccc3)c3ccccc3)CC1)C2O (stereo unspecified)
4. COc1ccc(CCn2ccc(=O)c(O)c2C)cc1OC
5. CC(=O)OC1Oc2cc(C)c(C)cc2-c2oc(=O)c(-c3ccccc3)cc21 (stereo unspecified)
6. C/C(=N\O)[C@H]1CC[C@@]2(C)[C@@H]3CC[C@H]4C(C)(C)/C(=N/O)CC[C@@]45CC35CC[C@]12C (stereo partly specified)

["> 100 µM", "> 100 µM", "35.8 µM", "> 100 µM", "37.3 µM", "> 16.7 µM"]

For each of the items listed, what is its TGI?
1. CCOC(=O)C(=Cc1c(-c2ccccc2)[nH]c2ccccc12)C(=O)OCC
2. C=CCN(N=O)C(=O)ON1C(=O)CCC1=O
3. CC(C)NC(=O)OCc1c(COC(=O)NC(C)C)n(C)c2c1ccc1cc(Cl)c(Cl)cc12
4. C[C@@H](CCO)OC1OC(COC(=O)C(C)(C)C)C(OC(=O)C(C)(C)C)C(OC(=O)C(C)(C)C)C1OC(=O)C(C)(C)C (stereo partly specified)
5. CCCCCc1cc(CCCC)sc1-c1ccco1

1. 49.2 µM
2. > 100 µM
3. 63.3 µM
4. > 100 µM
5. > 100 µM

* * *

tested on: HCT-116 colon; experiment: NCI tumour cell line growth inhibition, 48 h
quantity-name: TGI

compound	TGI
Cc1ccc2nc(Nc3ccccc3C)c(Nc3ccccc3C)nc2c1	40.2 µM
C=C1C[C@@H]2CC[C@@]34CC5O[C@H]6C(O[C@H]7CC[C@H](CC(=O)O[C@@H]8[C@@H](C)[C@@H]9O[C@@H]%10C[C@]%11(C[C@@H]%12O[C@]%13(C[C@H](C)[C@@H]%14O[C@@H]%15CC(C(COC(C)=O)OC(C)=O)O[C@@H]%15C[C@@H]%14O%13)C[C@H](C)[C@@H]%12O%11)O[C@@H]%10C[C@@H]9O[C@H]8CC8O[C@@H](CC[C@@H]1O2)C[C@@H](C)C8(O)CO)O[C@@H]7[C@@H]6O3)[C@H]5O4 (some centres not stated)	> 1 µM
O=C1[C@H]2ON(c3ccccc3)C(c3cccc([N+](=O)[O-])c3)[C@H]2C(=O)N1c1ccc(Cc2ccc(N3C(=O)[C@@H]4ON(c5ccccc5)C(c5cccc([N+](=O)[O-])c5)[C@@H]4C3=O)cc2)cc1 (some centres not stated)	> 100 µM
COc1cc(-c2nn3c(=O)n(-c4ccc(Cl)cc4)c(=O)nc3s2)cc(OC)c1OC	> 100 µM
CCn1c(-c2nonc2N)nc2c(C#CC(C)(C)O)ncc(OC[C@@H]3CCCN3)c21	20.2 µM

List reported TGI for each of these compounds:
1. CC1=NN(c2cccc(Cl)c2)C2(C1=Cc1ccc(N(C)C)cc1)C(Cl)C(=O)N2c1nc2ccccc2s1 (configuration not stated)
2. Cc1ccc(S(=O)(=O)N2CCc3cc(O)c([N+](=O)[O-])cc32)cc1

> 100 µM
> 100 µM

* * *

test system: SW-620 colon; assay: NCI tumour cell line growth inhibition, 48 h
For each entry below, report its TGI value.

Some compounds with recorded TGI:
compound	target-desc	quantity-name	result
O/N=C/[C@H]1COC2(CCCCC2)O1	SW-620 colon	TGI	> 100 µM
COC(=O)c1ccc2cc(O)ccc2c1	SW-620 colon	TGI	> 100 µM
COc1ccc2c(c1)CCC(CN1CCN(CCOC(c3ccccc3)c3ccccc3)CC1)C2O (centres undefined)	SW-620 colon	TGI	60.1 µM
Cc1ccc(N2C(=O)/C(=C3\Sc4c(nc(C)n(C)c4=O)N3c3ccccc3)SC2=S)cc1	SW-620 colon	TGI	> 100 µM

Batch lookup, TGI per entry.
1. CNc1ccc(N=Nc2cccc3ncccc23)cc1
2. Cc1cc2c(-c3nc4ccccn4c3NC34CC5CC(CC(C5)C3)C4)c(O)c(O)cc2c(O)c1-c1c(C)cc2c(-c3nc4ccccn4c3NC34CC5CC(CC(C5)C3)C4)c(O)c(O)cc2c1O
3. Cc1ccc(NCCNCC(O)CO)c2c(=O)c3ccccc3sc12 (centres undefined)

1. > 100 µM
2. > 25 µM
3. 2.57 µM
